What IC50 was measured for each of the following?
- test_target: Recombinant human renin (Homo sapiens, UniProt P00797)
- Construct: isolate the active form (residues 67-406); made in house; host or cells: FreeStyle 293-F cells (transient expression of pcDNA3.1(+)/hREN)
- Sequence (P00797 67-406): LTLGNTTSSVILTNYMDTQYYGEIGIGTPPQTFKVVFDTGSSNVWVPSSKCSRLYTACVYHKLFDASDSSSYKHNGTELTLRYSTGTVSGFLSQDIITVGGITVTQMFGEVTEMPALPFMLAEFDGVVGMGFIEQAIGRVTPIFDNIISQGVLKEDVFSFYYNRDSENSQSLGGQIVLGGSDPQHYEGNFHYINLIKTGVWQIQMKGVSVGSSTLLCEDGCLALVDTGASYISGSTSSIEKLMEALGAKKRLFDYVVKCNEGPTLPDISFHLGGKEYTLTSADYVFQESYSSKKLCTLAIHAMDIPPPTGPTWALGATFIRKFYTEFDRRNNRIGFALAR
- method: In vitro enzymatic activity assay of renin inhibitors (fluorogenic peptide substrate)
- Assay type: biochemical
- condition_notes: read-out: IC50 of Exemplified Compounds Against Renin
- Experimental: Test compounds in varying concentrations may be reacted with recombinant human renin in the presence of substrate, e.g., QXL520-γ-Abu-[…](HiLyteFluo488)-Arg-OH (Anaspec, San Jose, Calif.). […] Inhibition constants (IC50) may be calculated by non-linear curve fitting of the compound concentrations and fluorescence intensities to the standard IC50 equation. […] The fluorescence intensity is determined upon the addition of substrate and determined again after incubation at 37° C. for one hour. […]

Fill in: IC50 of `COCCCn1c([C@@H]2CCCN(C(=O)[C@@H]3CN(C(=O)c4ccc(-c5ccccc5)o4)C[C@H]3N)C2)nc2ccccc21` is ___
100 to 1000 nM

Fill in: IC50 of O=C([C@H]1CCCN1)N1CCCC(c2nc3ccccc3[nH]2)C1 (stereo partly drawn) is ___
> 1000 nM

Fill in: IC50 of CC(C)C[C@H](N)C(=O)N1CCCC(c2nc3ccccc3[nH]2)C1 (stereo partly drawn) is ___
> 1000 nM

Fill in: IC50 of `COCCCn1c([C@@H]2CCCN(C(=O)[C@@H]3CN(S(=O)(=O)c4cccc(F)c4)C[C@H]3N)C2)nc2ccccc21` is ___
100 to 1000 nM

Fill in: IC50 of `COCCCn1c([C@@H]2CCCN(C(=O)C[C@H](N)c3cccc(Br)c3)C2)nc2ccccc21` is ___
100 to 1000 nM

Fill in: IC50 of `COCCCn1c([C@@H]2CCCN(C(=O)C[C@H](N)Cc3ccc4ccccc4c3)C2)nc2ccc(F)cc21` is ___
100 to 1000 nM

Fill in: IC50 of O=C(Nc1ccc(Cl)c(C(F)(F)F)c1)N1CCCC(c2nc3ccccc3[nH]2)C1 (stereo not drawn) is ___
> 1000 nM

Fill in: IC50 of `COCCCn1c([C@@H]2CCCN(C(=O)[C@@H]3CN(S(=O)(=O)c4ccc(C(C)(C)C)cc4)C[C@H]3N)C2)nc2ccccc21` is ___
100 to 1000 nM

Fill in: IC50 of `COCCCn1c([C@@H]2CCCN(C(=O)C[C@H](N)CNC(=O)NCCc3cc(OC)ccc3OC)C2)nc2ccccc21` is ___
100 to 1000 nM

Fill in: IC50 of N[C@@H](CC(=O)N1CCCC(c2nc3ccccc3[nH]2)C1)Cc1cccc2ccccc12 (stereo partly drawn) is ___
> 1000 nM

Fill in: IC50 of `COCCCn1c([C@@H]2CCCN(C(=O)[C@@H]3CN(S(=O)(=O)c4ccc5[nH]c(=O)[nH]c5c4)C[C@H]3N)C2)nc2ccccc21` is ___
< 100 nM

Fill in: IC50 of `COc1ccc(-c2ccc(C[C@@H](N)CC(=O)N3CCC[C@@H](c4nc5ccccc5n4CCC(N)=O)C3)cc2)cc1` is ___
100 to 1000 nM

Fill in: IC50 of `COCCCn1c([C@@H]2CCCN(C(=O)C[C@H](N)Cc3ccc(C(=O)NC4CCCCC4)cc3)C2)nc2ccccc21` is ___
100 to 1000 nM

Fill in: IC50 of `COCCCn1c([C@@H]2CCCN(C(=O)C[C@H](N)Cc3ccc(-c4ccc(NC(N)=O)cc4)cc3)C2)nc2ccccc21` is ___
< 100 nM

Fill in: IC50 of `COCCCn1c([C@@H]2CCCN(C(=O)C[C@H](N)Cc3ccc(-c4ccc(N5CCOCC5)nc4)cc3)C2)nc2ccccc21` is ___
< 100 nM

Fill in: IC50 of `COCCCn1c([C@@H]2CCCN(C(=O)C[C@H](N)CNC(=O)c3cccc(C(=O)OC)c3)C2)nc2ccccc21` is ___
100 to 1000 nM

Fill in: IC50 of `COCCCn1c([C@@H]2CCCN(C(=O)C[C@H](N)Cc3ccc(-n4c(=O)n(C)c5ccccc54)cc3)C2)nc2ccccc21` is ___
< 100 nM

Fill in: IC50 of `COCCCn1c([C@@H]2CCCN(C(=O)[C@@H]3CN(S(=O)(=O)c4ccc(NC(C)=O)cc4)C[C@H]3N)C2)nc2ccccc21` is ___
100 to 1000 nM

Fill in: IC50 of `Cc1nc2ccccc2n1[C@H]1CCCN(C(=O)C[C@H](N)Cc2ccc3ccccc3c2)C1` is ___
> 1000 nM

Fill in: IC50 of `COCCCn1c([C@@H]2CCCN(C(=O)C[C@H](N)Cc3ccc(-c4ccc5[nH]ncc5c4)cc3)C2)nc2c(C)cccc21` is ___
< 100 nM

Fill in: IC50 of `COCCCn1c([C@@H]2CCCN(C(=O)[C@@H]3CN(S(=O)(=O)c4cccc(Cl)c4C)C[C@H]3N)C2)nc2ccccc21` is ___
100 to 1000 nM

Fill in: IC50 of `COCCCn1c([C@@H]2CCCN(C(=O)C[C@H](N)Cc3ccc(-c4ccc5c(c4)OCC(=O)N5)cc3)C2)nc2c(F)cccc21` is ___
< 100 nM

Fill in: IC50 of COCCCn1c(C2CCCN(C(=O)C[C@@H](N)c3ccccc3)C2)nc2ccccc21 (stereo partly drawn) is ___
> 1000 nM

Fill in: IC50 of `CC(=O)NCCn1c([C@@H]2CCCN(C(=O)C[C@H](N)Cc3ccc(-c4ccc5c(c4)NC(=O)CO5)cc3)C2)nc2ccccc21` is ___
100 to 1000 nM

Fill in: IC50 of `COCCCn1c([C@@H]2CCCN(C(=O)C[C@H](N)CNC(=O)NC3CCCC3)C2)nc2ccccc21` is ___
> 1000 nM

Fill in: IC50 of `COCCCn1c([C@@H]2CCCN(C(=O)C[C@H](N)Cc3ccc(-n4ccccc4=O)cc3)C2)nc2ccccc21` is ___
100 to 1000 nM

Fill in: IC50 of `COCCCn1c([C@@H]2CCCN(C(=O)C[C@H](N)Cc3ccc(-c4ccc(C#N)cc4)cc3)C2)nc2ccccc21` is ___
< 100 nM

---

What pIC50 was measured for each of the following?
- test_target: Recombinant human renin (Homo sapiens)
- Construct: isolate the active form (residues 67-406); made in house; host or cells: FreeStyle 293-F cells (transient expression of pcDNA3.1(+)/hREN)
- method: In vitro enzymatic activity assay of renin inhibitors (fluorogenic peptide substrate)
- Format: biochemical
- condition_notes: read-out: IC50 of Exemplified Compounds Against Renin
pIC50: −log10 of the molar value.

Field: pIC50 (Recombinant human renin (Homo sapiens)). Entry: `COCCCn1c([C@@H]2CCCN(C(=O)C[C@H](N)CNC(=O)c3ccc4ccccc4c3)C2)nc2ccccc21`
> 7.00

Field: pIC50 (Recombinant human renin (Homo sapiens)). Entry: `COCCCn1c([C@@H]2CCCN(C(=O)[C@@H]3CN(S(=O)(=O)c4c(Cl)cc(Br)cc4Cl)C[C@H]3N)C2)nc2ccccc21`
6.00 to 7.00

Field: pIC50 (Recombinant human renin (Homo sapiens)). Entry: `COCCCn1c([C@@H]2CCCN(C(=O)C[C@H](N)Cc3ccc(-c4cccnc4OC)cc3)C2)nc2ccccc21`
> 7.00

Field: pIC50 (Recombinant human renin (Homo sapiens)). Entry: `COCCCn1c([C@@H]2CCCN(C(=O)[C@@H]3CN(S(=O)(=O)c4ccc(N5CCCC5=O)cc4)C[C@H]3N)C2)nc2ccccc21`
6.00 to 7.00

Field: pIC50 (Recombinant human renin (Homo sapiens)). Entry: `COCCCn1c([C@@H]2CCCN(C(=O)C[C@H](N)Cc3ccc(-c4ccc5c(c4)CC(=O)N5C)cc3)C2)nc2c(C)cccc21`
> 7.00

Field: pIC50 (Recombinant human renin (Homo sapiens)). Entry: `COCCCn1c([C@@H]2CCCN(C(=O)[C@@H]3CN(S(=O)(=O)c4ccccc4C(=O)OC)C[C@H]3N)C2)nc2ccccc21`
6.00 to 7.00
